Each recorded value in this set is attributed to ChEMBL document CHEMBL2429758.

Target: Nuclear factor erythroid 2-related factor 2 (Homo sapiens)
Assay: Induction of Nrf2-mediated ARE activity in human HepG2-ARE-C8 cells at 1 uM after 12 hrs by luciferase reporter gene assay relative to control
Assay type: cell-based
Class assignment keyed on fold change (FC), ranges c1 (below 3), c2 (3 to below 4), c3 (4 or more)

{"COMPOUND": "COc1cccc2c1CCN1C(=O)/C(=C/C(=O)c3ccccc3)NCC21 (configuration not stated)", "CAT": "c2"}
{"COMPOUND": "O=C(/C=C1\\NCC2c3ccccc3CCN2C1=O)c1cccc(Cl)c1 (configuration not stated)", "CAT": "c3"}
{"COMPOUND": "O=C(/C=C1\\NCC2c3ccccc3CCN2C1=O)c1ccccc1[N+](=O)[O-] (configuration not stated)", "CAT": "c1"}
{"COMPOUND": "O=C(/C=C1\\NCC2c3ccccc3CCN2C1=O)c1ccccc1F (configuration not stated)", "CAT": "c3"}
{"COMPOUND": "O=C(/C=C1\\NCC2c3ccccc3CCN2C1=O)c1ccccc1Cl (configuration not stated)", "CAT": "c1"}
{"COMPOUND": "COc1ccccc1C(=O)/C=C1\\NCC2c3ccccc3CCN2C1=O (configuration not stated)", "CAT": "c1"}
{"COMPOUND": "O=C(/C=C1\\NCC2c3ccccc3CCN2C1=O)c1ccc([N+](=O)[O-])cc1 (configuration not stated)", "CAT": "c1"}
{"COMPOUND": "COc1ccc2c(c1)C1CN/C(=C\\C(=O)c3ccccc3F)C(=O)N1CC2 (configuration not stated)", "CAT": "c2"}
{"COMPOUND": "O=C(/C=C1\\NCC2c3ccccc3CCN2C1=O)c1ccccc1 (configuration not stated)", "CAT": "c3"}
{"COMPOUND": "COc1ccc2c(c1)C1CN/C(=C\\C(=O)c3ccccc3)C(=O)N1CC2 (configuration not stated)", "CAT": "c2"}
{"COMPOUND": "COc1cc2c(cc1OC)C1CN/C(=C\\C(=O)c3ccc(F)cc3)C(=O)N1CC2 (configuration not stated)", "CAT": "c1"}
{"COMPOUND": "COc1ccc2c(c1)CCN1C(=O)/C(=C/C(=O)c3ccccc3)NCC21 (configuration not stated)", "CAT": "c2"}
{"COMPOUND": "COc1ccc(C(=O)/C=C2\\NCC3c4ccccc4CCN3C2=O)cc1 (configuration not stated)", "CAT": "c1"}
{"COMPOUND": "COc1ccc2c(c1)C1CN/C(=C\\C(=O)c3cccc(Cl)c3)C(=O)N1CC2 (configuration not stated)", "CAT": "c3"}
